Target: SpSla1-D3
Assay: SPOT peptide array binding signal intensity (averaged, normalized) (arbitrary units (background-subtracted, floor 0; scale differs between SH3 domains)); higher = stronger binding of the SH3 domain to the peptide
Kind request: treat 10 as inclusive, so SPOT peptide array binding signal intensity at 10 or higher is met, anything lower is not met.

APPPPPRRATPEKKP
not met
VNFRRIPTGPDSPPT
not met
ERPKRRAPPPVPKKP
not met
RVRKTHVPASKRPSG
not met
LEFRAILFIPKRAPF
met

hey, is SPOT peptide array binding signal intensity for this one >= 10? `FPGKKSPRLPHRNKK`
met
